These entries and their values trace back to paper PMC9516332.

System: 134 cancer cell lines
Experiment: Cell viability assay (ATPlite, 72 hours), IC50 on cancer cell line panel
Details: Homo sapiens, LoVo, read-out: IC50 in cell proliferation assay
Parameter: IC50. Scope: all listed entries.

| Input smiles | Tested on | Endpoint unit | Bound sign | IC50 |
| --- | --- | --- | --- | --- |
| CNC(=O)c1ccc(-c2cnc3ncc(Cc4ccc5ncccc5c4)n3n2)cc1F | 134 cancer cell lines | µM | = | 0.00186 |
| Cn1cc(-c2cc3c(N4CCN(c5ncc([C@@](C)(N)c6ccc(F)cc6)cn5)CC4)ncnn3c2)cn1 | 134 cancer cell lines | µM | = | 6.42 |
| C[C@H]1Oc2cc(cnc2N)-c2c(nn(C)c2C#N)CN(C)C(=O)c2ccc(F)cc21 | 134 cancer cell lines | µM | > | 31.6 |
| CCc1cc2c(cc1N1CCC(N3CCOCC3)CC1)C(C)(C)c1[nH]c3cc(C#N)ccc3c1C2=O | 134 cancer cell lines | µM | > | 10 |
